read-out: Monocyte Chemoattractant Protein-1 (MCP1), CCL2 (gene 6347); test: BSK_CASM3C_MCP1: BioMAP Diversity Plus: CASM3C Assay for Monocyte Chemoattractant Protein-1 (MCP1) Biomarker Activity (AID 2283046); conditions: primary human coronary artery smooth muscle cells; actives raise or lower the signal;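 also: MCP-1 level quantified by ELISA 24 h after dosing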
The source made the active and inactive calls. The calls were made as follows: active = hit-call score of the fitted dose curve at least 0.9, where 1 is the maximum; inactive = score below 0.9.
Return exactly one item of active, inactive

Record request — test call for `Cc1ccc(N=CN(C)C=Nc2ccc(C)cc2C)c(C)c1`
inactive

Record request — test call for `COP(=S)(OC)Oc1ccc([N+](=O)[O-])c(C)c1`
inactive

Record request — test call for `Cc1nc(N(C)C)nc(OC(=O)N(C)C)c1C`
inactive

Record request — test call for O=C1C2CC=CCC2C(=O)N1SC(Cl)(Cl)Cl (configuration not stated)
active

Record request — test call for `CC(C)Nc1nc(Cl)nc(NC(C)C)n1`
inactive

Record request — test call for CCCCC(O)(Cn1cncn1)c1ccc(Cl)cc1Cl (configuration not stated)
inactive

Record request — test call for `CC(C)NC(=O)N1CC(=O)N(c2cc(Cl)cc(Cl)c2)C1=O`
inactive

----------
molecular target: Transcription factor Sp1 (Homo sapiens) (UniProt P08047); test: ATG_Sp1_CIS: Attagene CIS-FACTORIAL HepG2 Assay for human Specificity Protein 1 (Sp1) (AID 2282961); conditions: HepG2 Sp1 cis-reporter transcription, actives raise or lower the signal
Sequence (P08047 whole entry, looked up): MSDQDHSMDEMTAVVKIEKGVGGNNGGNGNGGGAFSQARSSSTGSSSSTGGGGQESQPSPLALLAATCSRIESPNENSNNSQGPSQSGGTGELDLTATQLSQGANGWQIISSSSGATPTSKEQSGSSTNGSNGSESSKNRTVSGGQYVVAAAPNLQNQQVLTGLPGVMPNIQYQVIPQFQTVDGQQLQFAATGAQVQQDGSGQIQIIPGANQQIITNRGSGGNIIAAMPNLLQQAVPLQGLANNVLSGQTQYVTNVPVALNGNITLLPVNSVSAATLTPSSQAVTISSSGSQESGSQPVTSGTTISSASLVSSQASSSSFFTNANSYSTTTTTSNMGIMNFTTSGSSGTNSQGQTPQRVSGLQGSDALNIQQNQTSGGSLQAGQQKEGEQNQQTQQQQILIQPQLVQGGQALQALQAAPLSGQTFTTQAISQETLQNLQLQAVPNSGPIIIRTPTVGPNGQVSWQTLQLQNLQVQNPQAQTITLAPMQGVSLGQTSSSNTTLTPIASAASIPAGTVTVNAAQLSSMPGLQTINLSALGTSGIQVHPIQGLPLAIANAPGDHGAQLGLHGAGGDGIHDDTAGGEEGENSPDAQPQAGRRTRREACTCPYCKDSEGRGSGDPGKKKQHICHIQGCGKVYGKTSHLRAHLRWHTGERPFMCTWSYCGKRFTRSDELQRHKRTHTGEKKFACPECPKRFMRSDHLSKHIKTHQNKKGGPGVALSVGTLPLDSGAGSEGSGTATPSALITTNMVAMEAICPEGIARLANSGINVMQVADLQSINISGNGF
Active and inactive are the calls of the source. Rule for the calls: active = hit-call score of the fitted dose curve at least 0.9, where 1 is the maximum; inactive = score below 0.9.
METRIC: AC50

Check out these entries, answers already filled in.
MOLECULE: Cc1nc(N(C)C)nc(OC(=O)N(C)C)c1C
AC50: inactive
--
MOLECULE: COC(=O)NC(=S)Nc1ccccc1NC(=S)NC(=O)OC
AC50: inactive
--
MOLECULE: CN=C=S
AC50: 13.3 µM (active)
--
MOLECULE: CCCCOCN(C(=O)CCl)c1c(CC)cccc1CC
AC50: inactive
--
MOLECULE: COCC(=O)N(c1c(C)cccc1C)C(C)C(=O)OC (stereo unspecified)
AC50: inactive

# next molecule below
Measured AC50 of COCc1cnc(C2=NC(C)(C(C)C)C(=O)N2)c(C(=O)O)c1 (stereo unspecified) : inactive

----------
read-out: Monocyte Chemoattractant Protein-1 (MCP1), CCL2 (gene 6347); experiment: BSK_SAg_MCP1: BioMAP Diversity Plus: SAg Assay for Monocyte Chemoattractant Protein-1 (MCP1) Biomarker Activity (AID 2283090); settings: primary human HUVEC with PBMC; actives raise or lower the signal
The source made the active and inactive calls. Rule for the calls: active = hit-call score of the fitted dose curve at least 0.9, where 1 is the maximum; inactive = score below 0.9.
Return exactly one item of 1.0 for active, 0.0 for inactive

Record request — test call for `COP(=O)(OC)O/C(C)=C/C(=O)N(C)C`
0.0

Record request — test call for `COP(=S)(OC)Oc1ccc([N+](=O)[O-])c(C)c1`
0.0

Record request — test call for `CCOP(=O)(OCC)Oc1nc(Cl)c(Cl)cc1Cl`
1.0

Record request — test call for `N#Cc1c(Cl)cccc1Cl`
0.0

Record request — test call for `Nc1c(Cl)c(Cl)nc(C(=O)O)c1Cl`
0.0

Record request — test call for `Nc1c(Cl)c(F)nc(OCC(=O)O)c1Cl`
0.0

Record request — test call for `COP(=S)(OC)SCn1nnc2ccccc2c1=O`
0.0

Record request — test call for `O=P(O)(O)CCCl`
0.0

Record request — test call for CC1(C)C(C(=O)OC(C#N)c2cccc(Oc3ccccc3)c2)C1(C)C (configuration not stated)
0.0

Record request — test call for CCCCC(O)(Cn1cncn1)c1ccc(Cl)cc1Cl (configuration not stated)
0.0

Record request — test call for `CNC(=O)Oc1cccc2ccccc12`
0.0

Record request — test call for `CCN(CC)c1nc(C)cc(OP(=S)(OC)OC)n1`
0.0

----------
molecular target: Luciferin 4-monooxygenase (Photinus pyralis); assay: CCTE_Simmons_QuantiLum_inhib_2: CCTE's Firefly Luciferase Inhibition Assay, Simmons Lab (AID 2283767)
Results filed as inconclusive are left out. Calls of active or inactive are those of the source. Rule for the calls: active = hit-call score of the fitted dose curve at least 0.9, where 1 is the maximum; inconclusive = response in the unintended direction; inactive = score below 0.9.
Return exactly one item of active, inactive

Record request — test call for `CCOP(=O)(OCC)Oc1nc(Cl)c(Cl)cc1Cl`
inactive

Record request — test call for Cc1cnc(C2=NC(C)(C(C)C)C(=O)N2)c(C(=O)O)c1 (configuration not stated)
inactive

Record request — test call for `COc1ccc(-c2ccccc2)cc1NNC(=O)OC(C)C`
active

Record request — test call for `COC(=O)NS(=O)(=O)c1ccc(N)cc1`
active

Record request — test call for `CCN(CC)c1nc(C)cc(OP(=S)(OC)OC)n1`
inactive

Record request — test call for `CCNC(=O)NC(=O)C(C#N)=NOC`
inactive

Record request — test call for `COC(=O)NC(=S)Nc1ccccc1NC(=S)NC(=O)OC`
inactive

Record request — test call for CCN(CC)C(=O)C(C)Oc1cccc2ccccc12 (configuration not stated)
active

Record request — test call for `COP(=S)(OC)SCn1nnc2ccccc2c1=O`
inactive

Record request — test call for `COP(=S)(OC)Oc1ccc([N+](=O)[O-])c(C)c1`
inactive

Record request — test call for `CS(=O)(=O)c1ccc(C(=O)C2C(=O)CCCC2=O)c([N+](=O)[O-])c1`
inactive

Record request — test call for `O=P(O)(O)CCCl`
inactive

----------
tested on: IYD (gene 389434); assay: CCTE_GLTED_hIYD: CCTE's human Iodotyrosine Deiodinase (xIYD) Inhibition Assay, Great Lakes Toxicology and Ecology Division (GLTED) Lab (AID 2284317);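 also: cell-free human IYD enzyme made in baculovirus insect cells; iodide freed from monoiodotyrosine measured by cerium arsenite color change at 420 nm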
Active and inactive are the calls of the source. Rule for the calls: active = hit-call score of the fitted dose curve at least 0.9, where 1 is the maximum; inconclusive = response in the unintended direction; inactive = score below 0.9.

COMPOUND: CC(C)Oc1cccc(NC(=O)c2ccccc2C(F)(F)F)c1
AC50: inactive

COMPOUND: CC(C)NC(=O)N1CC(=O)N(c2cc(Cl)cc(Cl)c2)C1=O
AC50: inactive

COMPOUND: CCN(CC)C(=O)C(C)Oc1cccc2ccccc12 (centres undefined)
AC50: inactive

COMPOUND: OC(c1ccc(Cl)cc1)(c1ccc(Cl)cc1)C(Cl)(Cl)Cl
AC50: 100 µM (active)

----------
read-out: Tissue Factor, F3 (gene 2152); assay: BSK_CASM3C_TissueFactor: BioMAP Diversity Plus: CASM3C Assay for Tissue Factor Biomarker Activity (AID 2283052); details: primary human coronary artery smooth muscle cells; actives raise or lower the signal;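 also: cell surface tissue factor protein level read by ELISA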
Activity calls are given as the source filed them. How the source made its calls: active means hit-call score of the fitted dose curve at least 0.9, where 1 is the maximum; inactive means score below 0.9.
METRIC: outcome

COMPOUND: COc1cc(OC)nc(NC(=O)NS(=O)(=O)c2ncccc2OCC(F)(F)F)n1
METRIC: outcome
MEASURED_RESULT: inactive

COMPOUND: CS(=O)(=O)c1ccc(C(=O)C2C(=O)CCCC2=O)c([N+](=O)[O-])c1
METRIC: outcome
MEASURED_RESULT: inactive

COMPOUND: Cc1cnc(C2=NC(C)(C(C)C)C(=O)N2)c(C(=O)O)c1 (stereo not drawn)
METRIC: outcome
MEASURED_RESULT: inactive

COMPOUND: CN/C(=N\[N+](=O)[O-])NCc1cnc(Cl)s1
METRIC: outcome
MEASURED_RESULT: inactive

COMPOUND: Cn1c(-c2ccccc2)cc(-c2ccccc2)[n+]1C
METRIC: outcome
MEASURED_RESULT: inactive

COMPOUND: CCOC(=O)C(C)OC(=O)c1cc(Oc2ccc(C(F)(F)F)cc2Cl)ccc1[N+](=O)[O-] (stereo not drawn)
METRIC: outcome
MEASURED_RESULT: inactive

COMPOUND: CNC(=O)Oc1cccc2ccccc12
METRIC: outcome
MEASURED_RESULT: inactive

COMPOUND: COc1cc(Cl)c(OC)cc1Cl
METRIC: outcome
MEASURED_RESULT: inactive

Measured outcome of `CNC(=O)N(C)c1nnc(C(C)(C)C)s1` : inactive

Measured outcome of CCNP(=S)(OC)O/C(C)=C/C(=O)OC(C)C (stereo not drawn) : inactive

Measured outcome of `CC(C)Nc1nc(Cl)nc(NC(C)C)n1` : inactive

Measured outcome of `CCSC(=O)N1CCCCCC1` : inactive

Measured outcome of `CCN(CC)c1nc(C)cc(OP(=S)(OC)OC)n1` : inactive

----------
read-out: Human Leukocyte Antigen - DR isotype (HLADR), HLA-DRA (gene 3122); assay: BSK_3C_HLADR: BioMAP Diversity Plus: 3C Assay for Human Leukocyte Antigen - DR isotype (HLADR) Biomarker Activity (AID 2283019); conditions: primary human endothelial cells (HUVEC); actives raise or lower the signal
Calls of active or inactive are those of the source. The calls were made as follows: active = hit-call score of the fitted dose curve at least 0.9, where 1 is the maximum; inactive = score below 0.9.
Return exactly one item of active, inactive

Record request — test call for CC1(C)CCC(=Cc2ccc(Cl)cc2)C1(O)Cn1cncn1 (centres undefined)
active

Record request — test call for CCCC(=NOCC)C1=C(O)CC(CC(C)SCC)CC1=O (centres undefined)
inactive

Record request — test call for `CCOP(=O)(OCC)Oc1nc(Cl)c(Cl)cc1Cl`
active

Record request — test call for COCC(C)N(C(=O)CCl)c1c(C)csc1C (centres undefined)
inactive

Record request — test call for `CN=C=S`
active

Record request — test call for `OC(c1ccc(Cl)cc1)(c1ccc(Cl)cc1)C(Cl)(Cl)Cl`
active

Record request — test call for `CNC(=O)N(C)c1nnc(C(C)(C)C)s1`
inactive

Record request — test call for `Cc1ccc(N=CN(C)C=Nc2ccc(C)cc2C)c(C)c1`
active

Record request — test call for `Nc1c(Cl)c(F)nc(OCC(=O)O)c1Cl`
inactive

Record request — test call for CCCN(CC)CC1COC2(CCC(C(C)(C)C)CC2)O1 (centres undefined)
active

Record request — test call for CCC(C)n1c(=O)[nH]c(C)c(Br)c1=O (centres undefined)
inactive

Record request — test call for `Clc1cccc(C(Cl)(Cl)Cl)n1`
inactive

Record request — test call for CC(C)(C)C(=O)C(Oc1ccc(Cl)cc1)n1cncn1 (centres undefined)
active

Record request — test call for `CCOP(=S)(OCC)Oc1nc(Cl)n(C(C)C)n1`
inactive

Record request — test call for Cc1cnc(C2=NC(C)(C(C)C)C(=O)N2)c(C(=O)O)c1 (centres undefined)
inactive

Record request — test call for `CCOc1nc(F)cc2nc(S(=O)(=O)Nc3c(Cl)cccc3Cl)nn12`
inactive

Record request — test call for `O=C(O)c1c(Cl)ccc2cc(Cl)cnc12`
inactive

Record request — test call for CCCCC(O)(Cn1cncn1)c1ccc(Cl)cc1Cl (centres undefined)
active

Record request — test call for `COc1ccc(-c2ccccc2)cc1NNC(=O)OC(C)C`
inactive

Record request — test call for `CCOc1nc(C(Cl)(Cl)Cl)ns1`
active

Record request — test call for `CCCCOCN(C(=O)CCl)c1c(CC)cccc1CC`
active

Record request — test call for `COC(=O)N(C(=O)N1CO[C@@]2(C(=O)OC)Cc3cc(Cl)ccc3C2=N1)c1ccc(OC(F)(F)F)cc1`
inactive

Record request — test call for `COc1cc(OC)nc(NC(=O)NS(=O)(=O)c2ncccc2OCC(F)(F)F)n1`
inactive

Record request — test call for CCOC(=O)C(C)OC(=O)c1cc(Oc2ccc(C(F)(F)F)cc2Cl)ccc1[N+](=O)[O-] (centres undefined)
active
